List of Ki tested on Alpha-2C adrenergic receptor (Homo sapiens, UniProt P18825).
Sequence (P18825 whole entry): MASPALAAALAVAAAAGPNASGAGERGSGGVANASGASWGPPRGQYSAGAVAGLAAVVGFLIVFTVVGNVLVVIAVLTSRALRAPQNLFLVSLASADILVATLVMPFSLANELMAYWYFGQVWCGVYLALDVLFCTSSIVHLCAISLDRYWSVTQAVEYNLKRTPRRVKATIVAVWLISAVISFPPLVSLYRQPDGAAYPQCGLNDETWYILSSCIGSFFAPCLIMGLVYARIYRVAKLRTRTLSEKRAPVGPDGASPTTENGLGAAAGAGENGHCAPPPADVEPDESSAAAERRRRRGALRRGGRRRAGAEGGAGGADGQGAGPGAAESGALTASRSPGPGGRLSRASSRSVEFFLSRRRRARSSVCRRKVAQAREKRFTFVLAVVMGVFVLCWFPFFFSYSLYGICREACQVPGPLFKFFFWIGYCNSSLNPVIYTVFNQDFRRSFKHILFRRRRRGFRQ
Parameter: Ki (nM)

INSERT INTO results (compound, unit_text, recorded_measurement) VALUES
  ('O=C(NC1CCN(CCc2c[nH]c3ccccc23)CC1)c1ccccc1', 'nM', 476),
  ('CC(C)=CCOc1ccc(Cl)c2c1CCN(C)CC2', 'nM', 64),
  ('COc1ccccc1N1CCN(CCCNc2c(C)c(=O)n(C)c(=O)n2C)CC1', 'nM', 131),
  ('COc1cccc(OC)c1OCCNCC1COc2ccccc2O1 (centres undefined)', 'nM', 0.8);

###

The following compounds each carry a recorded pKi for Alpha-1A adrenergic receptor (Rattus norvegicus, UniProt P43140).
pKi: −log10 of the molar value.
Parameter: pKi

INSERT INTO assay_data (compound, parameter, recorded_measurement) VALUES
  ('COc1ccccc1N1CCN(CCCNc2c(C)c(=O)n(C)c(=O)n2C)CC1', 'pKi', 9.15),
  ('COc1cccc(OC)c1OCCNCC1COc2ccccc2O1 (configuration not stated)', 'pKi', 10.10);

###

pKi: −log10 of the molar value.
These compounds were tested on Alpha-1D adrenergic receptor (Rattus norvegicus, UniProt P23944); pKi is the recorded read-out.
Sequence (P23944 whole entry): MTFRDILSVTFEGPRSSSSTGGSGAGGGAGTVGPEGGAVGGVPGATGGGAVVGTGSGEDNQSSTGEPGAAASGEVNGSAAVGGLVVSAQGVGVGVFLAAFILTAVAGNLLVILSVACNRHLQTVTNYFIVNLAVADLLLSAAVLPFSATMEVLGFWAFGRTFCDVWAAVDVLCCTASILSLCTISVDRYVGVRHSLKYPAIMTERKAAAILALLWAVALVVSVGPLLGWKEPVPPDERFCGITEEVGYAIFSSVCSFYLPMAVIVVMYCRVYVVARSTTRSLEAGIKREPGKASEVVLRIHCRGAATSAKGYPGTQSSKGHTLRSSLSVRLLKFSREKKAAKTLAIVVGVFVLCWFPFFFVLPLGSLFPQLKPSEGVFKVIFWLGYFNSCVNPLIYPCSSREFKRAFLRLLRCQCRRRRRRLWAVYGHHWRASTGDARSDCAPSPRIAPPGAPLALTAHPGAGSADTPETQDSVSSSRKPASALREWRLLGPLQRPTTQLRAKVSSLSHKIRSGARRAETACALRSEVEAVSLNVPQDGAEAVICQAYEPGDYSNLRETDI
Parameter: pKi

INSERT INTO assay_data (compound, parameter, recorded_measurement) VALUES
  ('COc1ccccc1N1CCN(CCCNc2c(C)c(=O)n(C)c(=O)n2C)CC1', 'pKi', 6.73),
  ('COC(=O)[C@H]1[C@H]2C[C@H]3c4[nH]c5ccccc5c4CCN3C[C@H]2CC[C@@H]1O', 'pKi', 7.46),
  ('COc1cc2nc(N(C)CCCNC(=O)C3CCCO3)nc(N)c2cc1OC (configuration not stated)', 'pKi', 8.46),
  ('COc1cccc(OC)c1OCCNCC1COc2ccccc2O1 (configuration not stated)', 'pKi', 8.92),
  ('COc1cc2nc(N3CCN(C(=O)C4CCCO4)CC3)nc(N)c2cc1OC (configuration not stated)', 'pKi', 7.46),
  ('O=C(NC1CCN(CCc2c[nH]c3ccccc23)CC1)c1ccccc1', 'pKi', 6.21),
  ('COc1cc2c(cc1OC)CN(c1cc(N)c3cc(OC)c(OC)cc3n1)CC2', 'pKi', 10.52);

###

Reported values of Ki for individual entries
- Measured target: Alpha-2A adrenergic receptor (Homo sapiens, UniProt P08913)
- Sequence (P08913 whole entry): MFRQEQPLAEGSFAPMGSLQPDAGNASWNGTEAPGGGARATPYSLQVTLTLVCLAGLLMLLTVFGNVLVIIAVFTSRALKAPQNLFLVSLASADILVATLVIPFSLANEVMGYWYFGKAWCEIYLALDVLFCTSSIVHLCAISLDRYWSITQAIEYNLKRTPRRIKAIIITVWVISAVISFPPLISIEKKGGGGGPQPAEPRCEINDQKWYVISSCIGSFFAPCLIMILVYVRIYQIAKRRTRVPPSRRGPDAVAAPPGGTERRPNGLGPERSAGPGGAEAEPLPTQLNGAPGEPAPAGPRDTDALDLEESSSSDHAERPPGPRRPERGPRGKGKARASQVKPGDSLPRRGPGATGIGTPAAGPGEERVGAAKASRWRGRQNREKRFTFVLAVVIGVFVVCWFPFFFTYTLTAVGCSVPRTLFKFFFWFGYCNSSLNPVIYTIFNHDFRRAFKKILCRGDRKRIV
- Run description: The compound was tested for binding affinity against Alpha-2A adrenergic receptor from human clones.
Parameter: Ki (nM)

INSERT INTO measurements (input_smiles, unit_text, recorded_measurement) VALUES
  ('COc1ccccc1N1CCN(CCCNc2c(C)c(=O)n(C)c(=O)n2C)CC1', 'nM', 612),
  ('O=C(NC1CCN(CCc2c[nH]c3ccccc23)CC1)c1ccccc1', 'nM', 2240);

###

- Measured target: Alpha-1B adrenergic receptor (Rattus norvegicus, UniProt P15823)
- Sequence (P15823 whole entry, looked up): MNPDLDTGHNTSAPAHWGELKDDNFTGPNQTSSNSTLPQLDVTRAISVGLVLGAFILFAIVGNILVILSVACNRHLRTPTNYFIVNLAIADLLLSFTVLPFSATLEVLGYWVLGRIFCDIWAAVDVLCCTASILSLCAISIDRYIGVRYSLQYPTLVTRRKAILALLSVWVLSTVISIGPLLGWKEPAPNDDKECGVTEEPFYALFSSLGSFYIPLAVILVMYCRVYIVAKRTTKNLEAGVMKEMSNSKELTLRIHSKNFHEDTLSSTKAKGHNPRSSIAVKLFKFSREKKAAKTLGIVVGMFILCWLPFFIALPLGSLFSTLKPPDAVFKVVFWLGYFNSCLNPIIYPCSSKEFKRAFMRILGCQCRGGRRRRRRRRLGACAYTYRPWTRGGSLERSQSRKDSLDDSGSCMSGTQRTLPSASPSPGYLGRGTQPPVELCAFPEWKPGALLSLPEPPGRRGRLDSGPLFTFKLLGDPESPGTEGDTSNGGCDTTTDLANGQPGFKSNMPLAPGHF
Parameter: Ki

INSERT INTO results (input_smiles, parameter, recorded_measurement) VALUES
  ('COc1ccccc1N1CCN(CCCNc2c(C)c(=O)n(C)c(=O)n2C)CC1', 'Ki', '96 nM');

###

- Measured target: Alpha-1D adrenergic receptor (Homo sapiens)
- Sequence (P25100 whole entry): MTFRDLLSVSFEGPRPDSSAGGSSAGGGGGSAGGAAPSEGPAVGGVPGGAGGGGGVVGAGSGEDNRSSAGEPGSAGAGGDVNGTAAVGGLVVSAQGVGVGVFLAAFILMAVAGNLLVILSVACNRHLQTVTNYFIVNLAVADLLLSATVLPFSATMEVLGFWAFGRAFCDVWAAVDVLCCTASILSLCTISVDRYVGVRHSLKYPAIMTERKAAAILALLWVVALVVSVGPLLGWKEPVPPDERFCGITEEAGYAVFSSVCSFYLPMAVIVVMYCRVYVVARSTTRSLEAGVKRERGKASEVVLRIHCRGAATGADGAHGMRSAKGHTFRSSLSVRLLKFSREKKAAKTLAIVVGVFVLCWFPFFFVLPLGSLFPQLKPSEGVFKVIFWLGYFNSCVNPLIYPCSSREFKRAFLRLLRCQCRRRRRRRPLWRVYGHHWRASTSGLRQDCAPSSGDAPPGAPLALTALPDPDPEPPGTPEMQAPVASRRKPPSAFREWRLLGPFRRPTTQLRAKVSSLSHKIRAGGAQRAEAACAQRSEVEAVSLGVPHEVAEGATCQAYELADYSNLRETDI
pKi: −log10 of the molar value.
Property: pKi; scope: individual compounds
Parameter: pKi

INSERT INTO assay_data (compound, recorded_measurement) VALUES
  ('O=C(NC1CCN(CCc2c[nH]c3ccccc23)CC1)c1ccccc1', 6.96),
  ('COc1cc2nc(N3CCN(C(=O)C4CCCO4)CC3)nc(N)c2cc1OC (centres undefined)', 8.46),
  ('COc1ccccc1N1CCN(CCCNc2c(C)c(=O)n(C)c(=O)n2C)CC1', 7.68),
  ('COc1cc2nc(N(C)CCCNC(=O)C3CCCO3)nc(N)c2cc1OC (centres undefined)', 8.44);

###

- Measured target: UniProtKB P22909
- Sequence (P22909 whole entry): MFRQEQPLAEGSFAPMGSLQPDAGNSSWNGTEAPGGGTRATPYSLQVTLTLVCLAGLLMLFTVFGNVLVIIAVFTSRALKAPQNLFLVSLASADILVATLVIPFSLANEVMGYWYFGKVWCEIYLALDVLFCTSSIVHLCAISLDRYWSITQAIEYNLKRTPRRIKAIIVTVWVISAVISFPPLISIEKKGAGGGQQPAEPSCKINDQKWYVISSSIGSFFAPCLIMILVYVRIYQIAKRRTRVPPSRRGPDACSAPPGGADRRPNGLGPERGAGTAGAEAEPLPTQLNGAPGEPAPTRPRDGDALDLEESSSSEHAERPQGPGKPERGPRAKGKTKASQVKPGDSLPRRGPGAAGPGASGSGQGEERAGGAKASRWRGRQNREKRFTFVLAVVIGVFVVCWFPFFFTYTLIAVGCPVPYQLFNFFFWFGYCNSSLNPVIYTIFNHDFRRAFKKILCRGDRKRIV
- Run description: The compound was tested for binding affinity against alpha-2D adrenergic receptor, from rat clones.
Parameter: Ki (nM)

INSERT INTO measurements (input_smiles, unit_text, recorded_measurement) VALUES
  ('CC(C)=CCOc1ccc(Cl)c2c1CCN(C)CC2', 'nM', 313);

###

This section lists Ki readings for UniProt:P18089.
Sequence (P18089 whole entry): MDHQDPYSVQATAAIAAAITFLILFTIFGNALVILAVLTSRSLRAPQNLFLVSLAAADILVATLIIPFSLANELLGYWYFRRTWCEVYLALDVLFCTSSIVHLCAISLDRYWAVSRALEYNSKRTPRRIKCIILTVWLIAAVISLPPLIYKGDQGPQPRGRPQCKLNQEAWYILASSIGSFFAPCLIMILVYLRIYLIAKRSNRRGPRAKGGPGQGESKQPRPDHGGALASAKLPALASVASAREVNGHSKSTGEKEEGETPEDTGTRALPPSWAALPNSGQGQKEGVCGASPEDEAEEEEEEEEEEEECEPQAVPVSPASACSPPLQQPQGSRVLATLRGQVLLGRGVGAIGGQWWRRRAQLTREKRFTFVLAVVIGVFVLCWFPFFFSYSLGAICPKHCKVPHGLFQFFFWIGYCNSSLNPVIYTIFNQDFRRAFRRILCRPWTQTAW
Parameter: Ki (nM)

INSERT INTO measurements (compound, recorded_measurement) VALUES
  ('COc1cccc(OC)c1OCCNCC1COc2ccccc2O1 (centres undefined)', 28),
  ('O=C(NC1CCN(CCc2c[nH]c3ccccc23)CC1)c1ccccc1 [INDORAMIN]', 528),
  ('COc1ccccc1N1CCN(CCCNc2c(C)c(=O)n(C)c(=O)n2C)CC1', 406),
  ('CC(C)=CCOc1ccc(Cl)c2c1CCN(C)CC2', 142);

###

Each record here notes measured pKi.
- Measured target: Alpha-1B adrenergic receptor (Homo sapiens)
- Sequence (P35368 whole entry): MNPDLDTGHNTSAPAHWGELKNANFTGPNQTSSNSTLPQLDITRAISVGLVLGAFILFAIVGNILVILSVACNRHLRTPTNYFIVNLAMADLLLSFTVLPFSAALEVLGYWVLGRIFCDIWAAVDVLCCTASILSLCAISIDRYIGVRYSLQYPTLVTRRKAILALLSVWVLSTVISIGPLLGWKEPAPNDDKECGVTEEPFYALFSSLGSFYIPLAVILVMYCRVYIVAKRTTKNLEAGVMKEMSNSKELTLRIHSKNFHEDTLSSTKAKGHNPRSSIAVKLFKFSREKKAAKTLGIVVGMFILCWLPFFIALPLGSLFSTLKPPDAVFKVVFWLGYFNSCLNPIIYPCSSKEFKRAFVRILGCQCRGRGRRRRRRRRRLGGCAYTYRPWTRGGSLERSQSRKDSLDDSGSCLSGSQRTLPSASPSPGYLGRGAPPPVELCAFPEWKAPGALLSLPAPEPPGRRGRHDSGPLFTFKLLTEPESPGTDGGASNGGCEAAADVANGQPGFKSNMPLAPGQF
- Run description: The compound was tested for binding affinity against Alpha-1B adrenergic receptor, from human clones.
pKi: −log10 of the molar value.
Parameter: pKi

INSERT INTO measurements (input_smiles, measured_target, parameter, recorded_measurement) VALUES
  ('COc1ccccc1N1CCN(CCCNc2c(C)c(=O)n(C)c(=O)n2C)CC1', 'Alpha-1B adrenergic receptor (Homo sapiens)', 'pKi', 7.04),
  ('O=C(NC1CCN(CCc2c[nH]c3ccccc23)CC1)c1ccccc1', 'Alpha-1B adrenergic receptor (Homo sapiens)', 'pKi', 7.54);

###

pKi by entry:
- Measured target: Alpha-1A adrenergic receptor (Bos taurus, UniProt P18130)
- Sequence (P18130 whole entry): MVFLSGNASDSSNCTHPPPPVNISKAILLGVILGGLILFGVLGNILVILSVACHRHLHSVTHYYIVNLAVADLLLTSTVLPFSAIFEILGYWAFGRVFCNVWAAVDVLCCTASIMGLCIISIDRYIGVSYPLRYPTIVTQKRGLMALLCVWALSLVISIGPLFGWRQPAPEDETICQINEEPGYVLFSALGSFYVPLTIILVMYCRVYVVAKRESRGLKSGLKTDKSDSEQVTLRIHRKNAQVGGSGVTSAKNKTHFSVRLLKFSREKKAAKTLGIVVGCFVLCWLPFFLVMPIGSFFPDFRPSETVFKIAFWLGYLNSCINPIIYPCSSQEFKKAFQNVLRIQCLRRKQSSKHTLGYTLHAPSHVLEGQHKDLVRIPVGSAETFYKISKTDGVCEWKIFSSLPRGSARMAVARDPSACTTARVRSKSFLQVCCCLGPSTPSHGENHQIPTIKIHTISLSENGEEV
- Run description: Binding affinity against Alpha-1A adrenergic receptor from bovine clone
pKi: −log10 of the molar value.
Parameter: pKi

INSERT INTO results (compound, parameter, recorded_measurement) VALUES
  ('COc1cc2nc(N3CCN(C(=O)C4CCCO4)CC3)nc(N)c2cc1OC (stereo not drawn) [TERAZOSIN]', 'pKi', 7.59),
  ('COc1cc2c(cc1OC)CN(c1cc(N)c3cc(OC)c(OC)cc3n1)CC2 [ABANOQUIL]', 'pKi', 10.52),
  ('COc1cccc(OC)c1OCCNCC1COc2ccccc2O1 (stereo not drawn)', 'pKi', 9.46);

###

- Measured target: Alpha-2A adrenergic receptor (Homo sapiens)
- Run description: Binding affinity against Alpha-2A adrenergic receptor, from human clones.
pKi: −log10 of the molar value.
Parameter: pKi

INSERT INTO measurements (compound, recorded_measurement) VALUES
  ('CC(C)=CCOc1ccc(Cl)c2c1CCN(C)CC2', 6.94),
  ('COc1cc2nc(N3CCN(C(=O)C4CCCO4)CC3)nc(N)c2cc1OC (stereo not drawn)', 5.43),
  ('COc1cccc(OC)c1OCCNCC1COc2ccccc2O1 (stereo not drawn)', 8.46);

###

Measured Ki accompanies every entry in the list below.
- Measured target: Alpha-2A adrenergic receptor (Bos taurus)
- Sequence (Q28838 whole entry): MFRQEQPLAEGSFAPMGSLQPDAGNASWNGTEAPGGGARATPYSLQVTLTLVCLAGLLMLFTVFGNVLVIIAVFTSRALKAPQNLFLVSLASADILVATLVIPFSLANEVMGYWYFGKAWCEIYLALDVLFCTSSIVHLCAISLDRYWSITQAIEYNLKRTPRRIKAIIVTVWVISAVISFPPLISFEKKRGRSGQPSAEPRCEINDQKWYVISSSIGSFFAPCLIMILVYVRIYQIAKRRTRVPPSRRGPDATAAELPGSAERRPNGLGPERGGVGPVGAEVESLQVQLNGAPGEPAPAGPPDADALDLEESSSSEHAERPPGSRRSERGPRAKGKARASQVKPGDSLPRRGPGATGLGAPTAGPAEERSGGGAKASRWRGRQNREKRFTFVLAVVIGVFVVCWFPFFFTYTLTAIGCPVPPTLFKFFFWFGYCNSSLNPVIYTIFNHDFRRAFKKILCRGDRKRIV
Parameter: Ki (nM)

INSERT INTO measurements (input_smiles, unit_text, recorded_measurement) VALUES
  ('COc1cc2nc(N3CCN(C(=O)c4ccco4)CC3)nc(N)c2cc1OC', 'nM', 106),
  ('Cc1cc(C(C)(C)C)c(O)c(C)c1CC1=NCCN1', 'nM', 1.5);
